Assay overview: Probe fluorescence ratio response to stearic acid relative to ADIFAB2
Format: binding
Run conditions: response relative to ADIFAB2
Result type: DR/DR SA
Answer field: number only, no words.

DR/DR SA measured on 14L 18L 31W 73W 117L 72A (protein, listed as Rattus norvegicus, PEPTIDE (1)...(131) wild-type rat intestinal fatty acid binding protein) AFDGTWKVDRNENLEKFLEKMGINVVKRKLWAHDNLKLTITQEGNKFTVKESSNFRNIDVVFELGVDFAYSAWDGTELTGTWTMEGNKLVGKFKRVDNGKELIAVREISGNELIQTLTYEGVEAKRIFKKE = 0.294

So, 14V 18L 73V 117A 72A (protein, listed as Rattus norvegicus, PEPTIDE (1)...(131) wild-type rat intestinal fatty acid binding protein) AFDGTWKVDRNENVEKFLEKMGINVVKRKLGAHDNLKLTITQEGNKFTVKESSNFRNIDVVFELGVDFAYSAVDGTELTGTWTMEGNKLVGKFKRVDNGKELIAVREISGNELIQTATYEGVEAKRIFKKE ? Its DR/DR SA was 0.105

The reported value for 18G 31F 73L 72A (protein, listed as Rattus norvegicus, PEPTIDE (1)...(131) wild-type rat intestinal fatty acid binding protein) AFDGTWKVDRNENYEKFGEKMGINVVKRKLFAHDNLKLTITQEGNKFTVKESSNFRNIDVVFELGVDFAYSALDGTELTGTWTMEGNKLVGKFKRVDNGKELIAVREISGNELIQTYTYEGVEAKRIFKKE in terms of DR/DR SA is 1.690
